This section presents compounds with their documented Dmax values.
# measuredOn: Helios (Homo sapiens, UniProt Q96SW2+Q9UKS7)
# Construct: fluorescently labelled antibodies against Helios and Ikaros; endogenous in cells; host or cells: Jurkat cells
# Sequence (Q9UKS7 whole entry): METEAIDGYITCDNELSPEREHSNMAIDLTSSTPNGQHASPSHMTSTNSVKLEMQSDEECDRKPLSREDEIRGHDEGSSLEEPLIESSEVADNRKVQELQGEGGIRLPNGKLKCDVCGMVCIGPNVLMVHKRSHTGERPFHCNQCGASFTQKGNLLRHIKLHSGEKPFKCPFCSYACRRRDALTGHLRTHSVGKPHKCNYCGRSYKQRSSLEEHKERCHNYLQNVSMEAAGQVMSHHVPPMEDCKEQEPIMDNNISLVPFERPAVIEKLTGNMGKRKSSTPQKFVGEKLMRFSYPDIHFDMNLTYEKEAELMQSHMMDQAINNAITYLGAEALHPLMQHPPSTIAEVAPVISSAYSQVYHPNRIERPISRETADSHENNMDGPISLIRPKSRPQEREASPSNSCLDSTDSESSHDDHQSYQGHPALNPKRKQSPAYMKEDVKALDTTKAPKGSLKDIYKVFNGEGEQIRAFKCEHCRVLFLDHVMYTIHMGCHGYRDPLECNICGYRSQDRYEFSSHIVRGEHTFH
# Sequence (Q96SW2 whole entry): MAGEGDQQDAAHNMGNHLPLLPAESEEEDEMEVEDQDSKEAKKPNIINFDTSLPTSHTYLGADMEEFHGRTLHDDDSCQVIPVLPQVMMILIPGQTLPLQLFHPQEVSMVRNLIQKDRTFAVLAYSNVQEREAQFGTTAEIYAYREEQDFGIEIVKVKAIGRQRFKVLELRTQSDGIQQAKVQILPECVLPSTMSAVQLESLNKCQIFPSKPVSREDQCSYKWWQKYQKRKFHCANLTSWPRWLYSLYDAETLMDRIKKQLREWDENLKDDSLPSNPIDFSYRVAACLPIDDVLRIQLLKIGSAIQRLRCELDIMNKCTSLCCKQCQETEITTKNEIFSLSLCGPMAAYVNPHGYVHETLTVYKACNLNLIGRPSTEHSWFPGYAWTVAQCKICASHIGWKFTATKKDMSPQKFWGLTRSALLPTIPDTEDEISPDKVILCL
# Sequence (Q16531 whole entry partner): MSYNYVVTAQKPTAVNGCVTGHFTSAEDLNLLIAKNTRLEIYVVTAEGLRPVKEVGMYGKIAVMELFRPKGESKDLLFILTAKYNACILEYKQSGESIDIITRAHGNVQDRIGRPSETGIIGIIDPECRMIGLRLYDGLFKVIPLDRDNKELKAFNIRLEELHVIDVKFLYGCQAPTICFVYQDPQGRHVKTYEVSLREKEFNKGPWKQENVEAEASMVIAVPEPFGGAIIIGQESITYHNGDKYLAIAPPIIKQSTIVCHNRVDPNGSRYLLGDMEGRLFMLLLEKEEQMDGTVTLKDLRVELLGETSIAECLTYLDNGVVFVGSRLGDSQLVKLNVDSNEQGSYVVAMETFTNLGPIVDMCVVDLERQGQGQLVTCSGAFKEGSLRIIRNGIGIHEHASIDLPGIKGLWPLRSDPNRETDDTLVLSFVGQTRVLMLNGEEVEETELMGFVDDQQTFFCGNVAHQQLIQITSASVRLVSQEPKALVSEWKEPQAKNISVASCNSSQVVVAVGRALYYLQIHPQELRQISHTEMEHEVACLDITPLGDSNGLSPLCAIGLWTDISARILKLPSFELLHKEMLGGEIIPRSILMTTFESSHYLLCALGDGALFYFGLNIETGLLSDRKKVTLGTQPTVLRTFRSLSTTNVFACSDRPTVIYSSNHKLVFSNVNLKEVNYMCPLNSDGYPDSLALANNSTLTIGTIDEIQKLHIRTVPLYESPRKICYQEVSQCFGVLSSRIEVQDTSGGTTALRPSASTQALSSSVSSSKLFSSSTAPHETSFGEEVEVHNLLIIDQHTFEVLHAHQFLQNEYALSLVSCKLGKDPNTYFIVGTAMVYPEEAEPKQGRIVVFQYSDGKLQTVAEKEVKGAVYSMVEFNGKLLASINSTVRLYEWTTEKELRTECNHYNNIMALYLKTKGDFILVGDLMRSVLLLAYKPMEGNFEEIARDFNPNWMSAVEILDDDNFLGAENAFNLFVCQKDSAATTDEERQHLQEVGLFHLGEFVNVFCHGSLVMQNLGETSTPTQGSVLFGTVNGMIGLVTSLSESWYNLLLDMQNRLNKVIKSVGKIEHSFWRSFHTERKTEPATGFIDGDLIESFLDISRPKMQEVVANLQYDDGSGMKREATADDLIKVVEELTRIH
# protocolText: Helios Cellular Degradation Assay (flow cytometry, Helios-PE antibody staining, 72 h)
# Assay type: cell-based
# measurementSetup: Jurkat, Jurkat cells, 72 h incubation, flow cytometry; read-out: Helios Dmax
Remember to put the unit after the number in your answer.

Consider the reported Dmax for these compounds:
CN(C)C1CCN(Cc2ccnc(-c3ccc4c(c3)CN(C3CCC(=O)NC3=O)C4=O)c2)CC1 (stereo not drawn) : 9%
CN(Cc1ccnc(-c2ccc3c(c2)CN(C2CCC(=O)NC2=O)C3=O)c1)C(C)(C)c1ccccc1 (stereo not drawn) : 83%
O=C1CCC(N2Cc3cc(-c4cc(CNCCN5CCOCC5)ccn4)ccc3C2=O)C(=O)N1 (stereo not drawn) : 102%
O=C1CCC(N2Cc3cc(-c4cc(CN5CCCC5)ccn4)ccc3C2=O)C(=O)N1 (stereo not drawn) : 85%
O=C1CCC(N2Cc3cc(-c4cc(CN5CCS(=O)(=O)CC5)ccn4)ccc3C2=O)C(=O)N1 (stereo not drawn) : 41%

Pending compound:
Problem: Requested read-out: Dmax. Entry: O=C1CCC(N2Cc3cc(-c4cc(CNCCCc5ccccc5)ccn4)ccc3C2=O)C(=O)N1 (stereo not drawn)
Solution: 91%

---

# measuredOn: Ikaros (Homo sapiens)
# Construct: fluorescently labelled antibodies against Helios and Ikaros; endogenous in cells; host or cells: Jurkat cells
# protocolText: Helios Cellular Degradation Assay, Ikaros readout (flow cytometry, Ikaros-Alexa488 antibody staining, 72 h)
# Format: cell-based
# measurementSetup: Jurkat, Jurkat cells, 72 h incubation, flow cytometry; read-out: Ikaros Dmax
Recorded Dmax values for a group of compounds are listed next.
Write it as a number; the unit % goes unstated.

Recorded results for 8 compounds are shown here.
O=C1CCC(N2Cc3cc(-c4cc(CN5CCC5c5ccccc5)c(F)cn4)ccc3C2=O)C(=O)N1 (stereo not drawn) : 16
O=C1CCC(N2Cc3cc(-c4cc(CNCCCCO)ccn4)ccc3C2=O)C(=O)N1 (stereo not drawn) : 28
O=C1CCC(N2Cc3cc(-c4cc(CNCCc5ccccc5Cl)ccn4)ccc3C2=O)C(=O)N1 (stereo not drawn) : 23
NCc1ccnc(-c2ccc3c(c2)CN(C2CCC(=O)NC2=O)C3=O)c1 (stereo not drawn) : 11
CC1(C)CCN(Cc2ccnc(-c3ccc4c(c3)CN(C3CCC(=O)NC3=O)C4=O)c2)CC1 (stereo not drawn) : 17
CC(NCc1ccnc(-c2ccc3c(c2)CN(C2CCC(=O)NC2=O)C3=O)c1)c1ccccc1 (stereo not drawn) : 10
O=C1CCC(N2Cc3cc(-c4cc(CN5CC(c6ccccc6)C5)ccn4)ccc3C2=O)C(=O)N1 (stereo not drawn) : 20
CN(CCc1ccccc1)Cc1ccnc(-c2ccc3c(c2)CN(C2CCC(=O)NC2=O)C3=O)c1 (stereo not drawn) : 4

Problem: # value lookup — system Ikaros (Homo sapiens), readout Dmax, item COC1(C)CN(Cc2ccnc(-c3ccc4c(c3)CN(C3CCC(=O)NC3=O)C4=O)c2)C1 (stereo not drawn)
Solution: 7

Problem: Please give the result for CN(Cc1ccc(S(=O)(=O)N(C)C)cc1)Cc1ccnc(-c2ccc3c(c2)CN(C2CCC(=O)NC2=O)C3=O)c1 (stereo not drawn) too.
Solution: 5

---

Dmax listing for selected molecules.
# measuredOn: Ikaros (Homo sapiens, UniProt Q13422)
# Construct: fluorescently labelled antibodies against Helios and Ikaros; endogenous in cells; host or cells: Jurkat cells
# Sequence (Q96SW2 whole entry partner): as the sequence (Q96SW2 whole entry) above
# Sequence (Q16531 whole entry partner): as the sequence (Q16531 whole entry partner) above
# Sequence (Q13422 whole entry): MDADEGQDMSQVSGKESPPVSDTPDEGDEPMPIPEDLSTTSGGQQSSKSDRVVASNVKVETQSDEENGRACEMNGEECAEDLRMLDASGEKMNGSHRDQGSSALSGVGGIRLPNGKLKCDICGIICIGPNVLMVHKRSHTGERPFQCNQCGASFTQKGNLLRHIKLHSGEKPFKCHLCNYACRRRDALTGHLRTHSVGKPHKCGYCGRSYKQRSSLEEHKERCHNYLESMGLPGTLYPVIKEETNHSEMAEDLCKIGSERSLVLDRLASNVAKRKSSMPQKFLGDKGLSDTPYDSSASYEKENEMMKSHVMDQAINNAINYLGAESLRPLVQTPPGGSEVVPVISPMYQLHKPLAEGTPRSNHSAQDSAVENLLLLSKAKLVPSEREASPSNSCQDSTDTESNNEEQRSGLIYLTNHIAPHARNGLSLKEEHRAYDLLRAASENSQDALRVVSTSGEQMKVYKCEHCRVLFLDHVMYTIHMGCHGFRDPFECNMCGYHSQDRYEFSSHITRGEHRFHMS
# protocolText: Helios Cellular Degradation Assay, Ikaros readout (flow cytometry, Ikaros-Alexa488 antibody staining, 72 h)
# Assay type: cell-based
# measurementSetup: Jurkat, Jurkat cells, 72 h incubation, flow cytometry; read-out: Ikaros Dmax
Expressed in %, but write only the number.

Examples with their reported Dmax follow.
O=C1CCC(N2Cc3cc(-c4cc(CNCC5CC5)ccn4)ccc3C2=O)C(=O)N1 (stereo not shown) : 1
Cc1ccccc1CNCc1ccnc(-c2ccc3c(c2)CN(C2CCC(=O)NC2=O)C3=O)c1 (stereo not shown) : 18
O=C1CCC(N2Cc3cc(-c4cc(CN5CCC(C(c6ccccc6)c6ccccc6)CC5)ccn4)ccc3C2=O)C(=O)N1 (stereo not shown) : 7
CN(Cc1ccc(Cl)cc1)Cc1ccnc(-c2ccc3c(c2)CN(C2CCC(=O)NC2=O)C3=O)c1 (stereo not shown) : 6
O=C1CCC(N2Cc3cc(-c4cc(CN5CC(c6ccccc6)C5)c(F)cn4)ccc3C2=O)C(=O)N1 (stereo not shown) : 16

Moving on to the next molecule.
Problem: Form field - read-out: Dmax; system: Ikaros (Homo sapiens, UniProt Q13422); submitted item: CC(C)CCN(C)Cc1ccnc(-c2ccc3c(c2)CN(C2CCC(=O)NC2=O)C3=O)c1 (stereo not shown)
Solution: 13

---

# measuredOn: Helios (Homo sapiens, UniProt Q96SW2+Q9UKS7)
# Construct: fluorescently labelled antibodies against Helios and Ikaros; endogenous in cells; host or cells: Jurkat cells
# protocolText: Helios Cellular Degradation Assay (flow cytometry, Helios-PE antibody staining, 72 h)
# Assay type: cell-based
# measurementSetup: Jurkat, Jurkat cells, 72 h incubation, flow cytometry; read-out: Helios Dmax
Please enter t where Dmax is greater than or equal to 80%, and f where it is lower.

Solved cases below.
O=C1CCC(N2Cc3cc(-c4cc(CNCc5ccccc5)ccn4)ccc3C2=O)C(=O)N1 (centres unmarked) : t
O=C1CCC(N2Cc3cc(-c4cc(CN5CC(c6ccccc6)C5)ccn4)ccc3C2=O)C(=O)N1 (centres unmarked) : t
COC1CN(Cc2ccnc(-c3ccc4c(c3)CN(C3CCC(=O)NC3=O)C4=O)c2)C1 (centres unmarked) : f
CCCN(Cc1ccnc(-c2ccc3c(c2)CN(C2CCC(=O)NC2=O)C3=O)c1)CC1CC1 (centres unmarked) : f
O=C1CCC(N2Cc3cc(-c4cc(CN5CCC(N6CCCCC6)CC5)ccn4)ccc3C2=O)C(=O)N1 (centres unmarked) : f

Shifting focus to the compound that follows.
Problem: Does the compound C[C@@H]1CCCCN1Cc1ccnc(-c2ccc3c(c2)CN(C2CCC(=O)NC2=O)C3=O)c1 (some centres unmarked) have recorded Dmax that is 80% or more?
Solution: f

---

# measuredOn: Ikaros (Homo sapiens, UniProt Q13422)
# Construct: fluorescently labelled antibodies against Helios and Ikaros; endogenous in cells; host or cells: Jurkat cells
# protocolText: Helios Cellular Degradation Assay, Ikaros readout (flow cytometry, Ikaros-Alexa488 antibody staining, 72 h)
# Assay type: cell-based
# measurementSetup: Jurkat, Jurkat cells, 72 h incubation, flow cytometry; read-out: Ikaros Dmax
propertyName: Dmax
Output should be the measured figure followed by the unit it is expressed in.

Here's what some known entries look like.
CC1CCC(C)N1Cc1ccnc(-c2ccc3c(c2)CN(C2CCC(=O)NC2=O)C3=O)c1 (centres unmarked) : 3%
O=C1CCC(N2Cc3cc(-c4cc(CNCCc5cccc(Cl)c5)ccn4)ccc3C2=O)C(=O)N1 (centres unmarked) : 10%
Cc1cccc(N2CCN(Cc3ccnc(-c4ccc5c(c4)CN(C4CCC(=O)NC4=O)C5=O)c3)CC2C)c1 (centres unmarked) : 7%
O=C1CCC(N2Cc3cc(-c4cc(CN5CCN(C(=O)c6ccco6)CC5)ccn4)ccc3C2=O)C(=O)N1 (centres unmarked) : 11%
CN(Cc1ccnc(-c2ccc3c(c2)CN(C2CCC(=O)NC2=O)C3=O)c1)C(C)(C)c1ccccc1 (centres unmarked) : 52%

Problem: Form field - read-out: Dmax; system: Ikaros (Homo sapiens, UniProt Q13422); submitted item: COc1ccc(CNCc2ccnc(-c3ccc4c(c3)CN(C3CCC(=O)NC3=O)C4=O)c2)cc1 (centres unmarked)
Solution: 6%

Problem: Subsequent entry: C[C@@H]1CCCN(Cc2ccnc(-c3ccc4c(c3)CN(C3CCC(=O)NC3=O)C4=O)c2)C1 (some centres unmarked)
Solution: 10%

Problem: How about this molecule: O=C1CCC(N2Cc3cc(-c4cc(CN5CCC5)ccn4)ccc3C2=O)C(=O)N1 (centres unmarked)
Solution: 14%

Problem: Then what about the molecule O=C1CCC(N2Cc3cc(-c4cc(CNCCc5ccccc5)ccn4)ccc3C2=O)C(=O)N1 (centres unmarked) ?
Solution: 13%

Problem: // query: CN(Cc1ccnc(-c2ccc3c(c2)CN(C2CCC(=O)NC2=O)C3=O)c1)CC1CCOC1 (centres unmarked)
Solution: 23%

Problem: Quick one: C[C@H]1CCN(Cc2ccnc(-c3ccc4c(c3)CN(C3CCC(=O)NC3=O)C4=O)c2)C1 (some centres unmarked)
Solution: 13%

---

Reported Dmax values are given for each entry in this list.
# measuredOn: Ikaros (Homo sapiens)
# Construct: fluorescently labelled antibodies against Helios and Ikaros; endogenous in cells; host or cells: Jurkat cells
# protocolText: Helios Cellular Degradation Assay, Ikaros readout (flow cytometry, Ikaros-Alexa488 antibody staining, 72 h)
# Assay type: cell-based
# measurementSetup: Jurkat, Jurkat cells, 72 h incubation, flow cytometry; read-out: Ikaros Dmax
Give the value in % but do not write % after it.

CC(C)N1CCN(Cc2ccnc(-c3ccc4c(c3)CN(C3CCC(=O)NC3=O)C4=O)c2)CC1 (stereo not shown) : 12
CN(Cc1ccccc1)Cc1ccnc(-c2ccc3c(c2)CN(C2CCC(=O)NC2=O)C3=O)c1 (stereo not shown) : 10
CN1C[C@@H]2CN(Cc3ccnc(-c4ccc5c(c4)CN(C4CCC(=O)NC4=O)C5=O)c3)C[C@@H]2C1 (stereo partly shown) : 0

Field: next compound
Problem: Item: C[C@@H]1CCCN1Cc1ccnc(-c2ccc3c(c2)CN(C2CCC(=O)NC2=O)C3=O)c1 (stereo partly shown) Test system: Ikaros (Homo sapiens) Read-out: Dmax Value: ?
Solution: 8

Reference source for all entries: patent US11548870B2
